# SYSTEM_NAME: 5-hydroxytryptamine receptor 2A (Rattus norvegicus, UniProt P14842)
# Sequence (P14842 whole entry): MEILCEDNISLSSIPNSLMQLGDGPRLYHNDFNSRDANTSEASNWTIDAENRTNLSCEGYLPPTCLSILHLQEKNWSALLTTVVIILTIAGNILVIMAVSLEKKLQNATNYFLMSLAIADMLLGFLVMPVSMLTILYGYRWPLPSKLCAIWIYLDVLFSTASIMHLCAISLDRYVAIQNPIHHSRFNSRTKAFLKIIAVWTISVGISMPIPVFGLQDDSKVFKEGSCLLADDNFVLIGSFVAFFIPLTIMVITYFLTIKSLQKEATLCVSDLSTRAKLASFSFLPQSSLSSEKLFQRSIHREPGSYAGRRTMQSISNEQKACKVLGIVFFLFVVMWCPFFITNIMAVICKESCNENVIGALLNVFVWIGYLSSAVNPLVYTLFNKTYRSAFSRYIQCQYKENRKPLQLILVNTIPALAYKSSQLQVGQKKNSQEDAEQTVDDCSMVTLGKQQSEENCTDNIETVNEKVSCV
PROPERTY_LABEL: Ki

Quick one: Ki for CS(=O)(=O)c1ccccc1N1CCN(CCCCCC(=O)NC2CCCc3ccccc32)CC1 (stereo unspecified) ?
> 4 µM

----------
# SYSTEM_NAME: 5-hydroxytryptamine receptor 7 (Homo sapiens, UniProt P34969)
# Sequence (P34969 whole entry): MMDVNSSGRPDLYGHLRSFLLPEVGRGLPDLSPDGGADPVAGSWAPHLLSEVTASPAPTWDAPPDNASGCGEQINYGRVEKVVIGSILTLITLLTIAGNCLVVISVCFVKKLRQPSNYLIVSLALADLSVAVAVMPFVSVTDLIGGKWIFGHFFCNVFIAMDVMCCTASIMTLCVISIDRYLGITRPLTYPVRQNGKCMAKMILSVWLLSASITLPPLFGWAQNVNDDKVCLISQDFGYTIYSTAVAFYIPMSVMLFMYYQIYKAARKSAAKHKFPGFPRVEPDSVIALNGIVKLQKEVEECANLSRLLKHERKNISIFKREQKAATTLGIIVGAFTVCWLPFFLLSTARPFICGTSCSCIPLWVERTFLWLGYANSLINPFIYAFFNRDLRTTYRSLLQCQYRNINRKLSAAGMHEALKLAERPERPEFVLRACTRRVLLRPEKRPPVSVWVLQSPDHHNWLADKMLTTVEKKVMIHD
# TEST_NAME: Agonist activity at 5-carboxamidotryptamine desensitized 5HT7 receptor assessed as relaxation of substance P-induced contraction of Dunkin-Hartley guinea pig ileum
# Format: functional, tissue-based
# Parameters: concentration or dose not given beside the values
# CONDITION_PARAMETERS: Cavia porcellus, target entry is the homologue from another species
Exam item: assign satisfied to entries whose Activity is below 90% and not satisfied to entries at or above 90%. Note that a value of exactly 90% receives not satisfied.

Answer whether the compound CSc1ccccc1N1CCN(CCCCCC(=O)NC2CCCc3ccccc32)CC1 (stereo unspecified) has Activity strictly less than 90%
not satisfied

Also, CC(=O)c1ccccc1N1CCN(CCCCCC(=O)NC2CCCc3ccccc32)CC1 (stereo unspecified) please.
satisfied

Would you mind doing Cc1ccccc1N1CCN(CCCCCC(=O)NC2CCCc3ccccc32)CC1 (stereo unspecified) as well?
not satisfied

Thanks! And O=C(CCCCCN1CCN(c2ccccc2O)CC1)NC1CCCc2ccccc21 (stereo unspecified) ?
satisfied

Can you handle `NCCc1c[nH]c2ccc(C(N)=O)cc12` next?
not satisfied

// provenance: ChEMBL document CHEMBL1149286
